Kindly supply the reported cAMP Rel EC50, nM (1% HSA) values for the records listed here.
Target: human glucagon receptor (human) (UniProt P47871)
Sequence (P47871 26-477): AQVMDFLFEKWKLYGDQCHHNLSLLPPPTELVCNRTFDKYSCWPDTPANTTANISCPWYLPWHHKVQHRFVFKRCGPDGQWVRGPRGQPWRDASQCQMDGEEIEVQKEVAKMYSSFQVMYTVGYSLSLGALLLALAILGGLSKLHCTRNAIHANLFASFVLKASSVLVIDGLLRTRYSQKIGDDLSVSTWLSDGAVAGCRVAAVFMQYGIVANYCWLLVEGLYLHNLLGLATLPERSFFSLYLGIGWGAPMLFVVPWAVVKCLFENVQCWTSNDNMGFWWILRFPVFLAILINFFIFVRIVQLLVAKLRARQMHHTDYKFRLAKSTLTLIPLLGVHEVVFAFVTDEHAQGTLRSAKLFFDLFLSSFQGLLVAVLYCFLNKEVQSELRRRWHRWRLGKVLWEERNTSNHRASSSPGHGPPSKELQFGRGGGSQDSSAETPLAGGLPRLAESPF
Test: cell-based or functional assay
Numbers only, in nM.

Below are worked cases with known answers.
INSERT INTO results (binder, reportedproperty, recordednumber) VALUES
  ('YXQGTFTSDFSXXLDKKAQXAFIEYLLEAGPSSGEPPPSGQ (ornithine at residue 12; synthetic construct; SITE 2: note = 2-Aminoisobutyric Acid; SITE 12: note = L-ornithine; SITE 13: note = alpha-methyl-leucine; SITE 17: note = Lysine is chemically modified through conjugation of the epsilon-amino group of the Lysine side chain with (2-[2-(2-Amino-ethoxy)-ethoxy]-acetyl)2-(gamma-Glu)) [Example 157]', 'cAMP Rel EC50, nM (1% HSA)', 838),
  ('YXQGTFTSDFSXXLDKKAQXAFIEYLLEXGXSSGAPPPSGS (acylated; synthetic construct; SITE 2: note = 2-Aminoisobutyric Acid; SITE 12: note = L-ornithine; SITE 13: note = alpha-methyl-leucine; SITE 17: note = Lysine is chemically modified through conjugation of the epsilon-amino group of the Lysine side chain with (2-[2-(2-Amino-ethoxy)-ethoxy]-acetyl)-(gamma-Glu)) [Example 242]', 'cAMP Rel EC50, nM (1% HSA)', 484);

// moving on: another record for cAMP Rel EC50, nM (1% HSA)
# query: cAMP Rel EC50, nM (1% HSA) of entry YXQGTFTSDXSQXLDXKAQXQFIEXLIEGGPSSGAPPPSGSEE (non-natural residues, C-terminal amide, acylated Lys with fatty diacid; synthetic construct; SITE 2: note = 2-Aminoisobutyric Acid; SITE 10: note = 3-(4-Pyridyl)-L-alanine; SITE 13: note = alpha-methyl-leucine; SITE 16: note = L-ornithine; SITE 17: note = Lysine is chemically modified through conjugation of the epsilon-amino group of the Lysine side chain with (gamma-Gl)) [Example 1046]
1680
